Percent Effect values for the molecules below.
Target: Sialic acid-binding Ig-like lectin 9 (Homo sapiens)
Test: Hs-Siglec9 ALPHAscreen SOP 20170721
Design: scale not given: direction of the effect not stated beside the values
Details: 10 µM
# value in %; strip the unit string

Molecule: CCC1c2ccsc2CCN1C(=O)NCc1ccccn1 (stereo not given)
Unit Info: %
Percent Effect: -10.3
//
Molecule: Cc1occc1C(=O)N1CCC2(CCC(C(=O)NCC3CC3)O2)CC1 (stereo not given)
Unit Info: %
Percent Effect: 1.13
//
Molecule: O=C(NCCCN1CCOCC1)c1cc(-c2ccc3c(c2)CCO3)n[nH]1
Unit Info: %
Percent Effect: 0.426
//
Molecule: CCc1nc(C2CCCN2CCc2ccccn2)no1 (stereo not given)
Unit Info: %
Percent Effect: -18.3

Form: item CCc1ccc(OCC(O)CN2CCC(O)CC2)cc1 (stereo not given) ; test system Sialic acid-binding Ig-like lectin 9 (Homo sapiens); Percent Effect: -12.1

Test item CC(C)(C)c1cn2nc(N3CCCC3Cn3cncn3)sc2n1 (stereo not given) ; Sialic acid-binding Ig-like lectin 9 (Homo sapiens); reported Percent Effect was -6.25

Reported Sialic acid-binding Ig-like lectin 9 (Homo sapiens) Percent Effect for item CCC1CN(CCNC(C)=O)CCN1CCOC (stereo not given) was -8.99

Field Percent Effect (Sialic acid-binding Ig-like lectin 9 (Homo sapiens)), entry Cc1nccnc1N1CC[C@@H](NC(=O)c2cnccn2)[C@H](O)C1 : 17.2

Considering O=C1NCC2(CCCN(Cc3ccc(Cl)s3)C2)Oc2ccccc21 (stereo not given) , its Percent Effect with Sialic acid-binding Ig-like lectin 9 (Homo sapiens) was recorded as 4.75

Lab entry: Sialic acid-binding Ig-like lectin 9 (Homo sapiens) assay, molecule Cc1cc2n(n1)CC(CNCc1ccc(-n3cccn3)nc1)CN2 (stereo not given) , Percent Effect = 8.37

Form field, Percent Effect with Sialic acid-binding Ig-like lectin 9 (Homo sapiens), item C1CC(CN2CCO[C@H]3[C@H](OCC4CC4)CC[C@@H]32)CCO1 : -1.5

Item Cc1noc(C(C)C)c1C(=O)NCCCOC(C)C was tested on Sialic acid-binding Ig-like lectin 9 (Homo sapiens); the reported Percent Effect is 15.3

# COCC(=O)N1CCC(c2cc(C(F)(F)F)n3ccnc3n2)CC1 with Sialic acid-binding Ig-like lectin 9 (Homo sapiens): Percent Effect is 7.36

Summary line: Cc1cc(C)n(CC2CCCN2CCc2ccncc2)n1 (stereo not given) , Sialic acid-binding Ig-like lectin 9 (Homo sapiens), reported Percent Effect = -18.5

// assay Sialic acid-binding Ig-like lectin 9 (Homo sapiens), entry COc1ccc(OC)c(C(C)Nc2nc3c(C)nn(C)c3c(=O)n2C)c1 (stereo not given) , Percent Effect value = 1.13

COC(=O)C1CCN(C(=O)CN2CCN(c3cccc(C)c3)CC2)CC1 on Sialic acid-binding Ig-like lectin 9 (Homo sapiens) gives Percent Effect = 3.16

The observed Percent Effect for O=C(c1ccc(OCC2CC2)nc1)N1CCCC(n2ccnc2)C1 (stereo not given) when tested with Sialic acid-binding Ig-like lectin 9 (Homo sapiens) stands at -6.85

# Percent Effect measured on Sialic acid-binding Ig-like lectin 9 (Homo sapiens) for item CC(C)c1cc(NCC(C)N2CCCC2)n2nccc2n1 (stereo not given) = 6.08

The measured Percent Effect that O=C(C1CCOC1)N1CC[C@@H](O)[C@@H]1Cc1ccccc1 (stereo not given in full) showed for Sialic acid-binding Ig-like lectin 9 (Homo sapiens) is -3.29

Given the molecule CC(C)C(=O)NCCCn1ncc2c(Cl)cccc21 and test system Sialic acid-binding Ig-like lectin 9 (Homo sapiens), the measured Percent Effect is 17.2

Given the molecule CCn1cc(CN(C)S(=O)(=O)c2cnn(CC)c2C)c(C)n1 and test system Sialic acid-binding Ig-like lectin 9 (Homo sapiens), the measured Percent Effect is -2.08

The value of Percent Effect recorded for CSCC[C@H](NC(=O)Cn1ccc2c(Cl)cccc21)C(=O)O when tested on Sialic acid-binding Ig-like lectin 9 (Homo sapiens) reads 2.75

The molecule O=C(NCc1cc[nH]n1)NCC(c1ccc(F)cc1)N1CCOCC1 (stereo not given) , tested on Sialic acid-binding Ig-like lectin 9 (Homo sapiens), showed Percent Effect of -10.9

For Cc1cnn(CC2CCCCN2Cc2nnc(C3CC3)n2C)c1 (stereo not given) on Sialic acid-binding Ig-like lectin 9 (Homo sapiens), measured Percent Effect was -0.259

Let me check: CNC(=O)c1cc2c(nc1NCC1CC1)CCN(c1ccncn1)CC2 , system Sialic acid-binding Ig-like lectin 9 (Homo sapiens), measured Percent Effect is 4.48
